molecular target: EZH2 within the PRC2 complex (Homo sapiens (Human), UniProt Q15910); test: EZH2 methyltransferase SPA, biotinylated histone H3K27 peptide substrate (Assay Protocol 2); type: biochemical; conditions: 3H-SAM, ≦10 nM approaches limit of detection
Sequence (Q15910 whole entry): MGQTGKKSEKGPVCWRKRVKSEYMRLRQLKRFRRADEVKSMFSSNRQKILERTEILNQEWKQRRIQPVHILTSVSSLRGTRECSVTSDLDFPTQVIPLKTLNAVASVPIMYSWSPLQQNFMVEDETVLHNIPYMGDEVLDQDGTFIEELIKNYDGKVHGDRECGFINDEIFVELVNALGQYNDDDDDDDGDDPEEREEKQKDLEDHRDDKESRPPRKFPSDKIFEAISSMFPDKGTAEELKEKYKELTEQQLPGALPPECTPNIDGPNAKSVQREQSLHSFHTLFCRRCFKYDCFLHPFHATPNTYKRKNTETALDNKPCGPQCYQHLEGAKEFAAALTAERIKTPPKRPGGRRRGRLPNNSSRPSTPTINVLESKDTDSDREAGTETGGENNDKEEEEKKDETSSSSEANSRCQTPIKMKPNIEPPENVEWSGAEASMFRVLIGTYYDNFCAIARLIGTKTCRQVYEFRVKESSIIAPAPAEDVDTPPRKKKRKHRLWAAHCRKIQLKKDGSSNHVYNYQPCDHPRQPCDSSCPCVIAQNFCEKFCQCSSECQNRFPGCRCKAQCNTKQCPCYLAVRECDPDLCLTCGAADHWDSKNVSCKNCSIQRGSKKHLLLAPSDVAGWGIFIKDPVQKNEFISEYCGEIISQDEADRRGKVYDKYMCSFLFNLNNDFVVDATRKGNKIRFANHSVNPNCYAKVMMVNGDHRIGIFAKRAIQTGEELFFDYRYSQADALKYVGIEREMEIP
Sequence (O75530 whole entry partner): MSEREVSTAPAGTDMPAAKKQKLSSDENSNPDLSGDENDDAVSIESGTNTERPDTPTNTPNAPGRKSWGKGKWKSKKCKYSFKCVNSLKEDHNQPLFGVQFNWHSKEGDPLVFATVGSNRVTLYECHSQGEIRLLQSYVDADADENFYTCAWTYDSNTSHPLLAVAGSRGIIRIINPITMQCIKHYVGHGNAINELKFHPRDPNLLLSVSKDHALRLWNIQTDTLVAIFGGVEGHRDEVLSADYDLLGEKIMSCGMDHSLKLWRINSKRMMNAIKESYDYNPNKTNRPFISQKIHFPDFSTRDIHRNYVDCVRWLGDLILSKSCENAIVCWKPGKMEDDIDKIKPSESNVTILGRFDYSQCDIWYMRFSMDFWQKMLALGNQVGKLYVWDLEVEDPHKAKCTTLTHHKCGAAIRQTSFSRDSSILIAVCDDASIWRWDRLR
Sequence (Q15022 whole entry partner): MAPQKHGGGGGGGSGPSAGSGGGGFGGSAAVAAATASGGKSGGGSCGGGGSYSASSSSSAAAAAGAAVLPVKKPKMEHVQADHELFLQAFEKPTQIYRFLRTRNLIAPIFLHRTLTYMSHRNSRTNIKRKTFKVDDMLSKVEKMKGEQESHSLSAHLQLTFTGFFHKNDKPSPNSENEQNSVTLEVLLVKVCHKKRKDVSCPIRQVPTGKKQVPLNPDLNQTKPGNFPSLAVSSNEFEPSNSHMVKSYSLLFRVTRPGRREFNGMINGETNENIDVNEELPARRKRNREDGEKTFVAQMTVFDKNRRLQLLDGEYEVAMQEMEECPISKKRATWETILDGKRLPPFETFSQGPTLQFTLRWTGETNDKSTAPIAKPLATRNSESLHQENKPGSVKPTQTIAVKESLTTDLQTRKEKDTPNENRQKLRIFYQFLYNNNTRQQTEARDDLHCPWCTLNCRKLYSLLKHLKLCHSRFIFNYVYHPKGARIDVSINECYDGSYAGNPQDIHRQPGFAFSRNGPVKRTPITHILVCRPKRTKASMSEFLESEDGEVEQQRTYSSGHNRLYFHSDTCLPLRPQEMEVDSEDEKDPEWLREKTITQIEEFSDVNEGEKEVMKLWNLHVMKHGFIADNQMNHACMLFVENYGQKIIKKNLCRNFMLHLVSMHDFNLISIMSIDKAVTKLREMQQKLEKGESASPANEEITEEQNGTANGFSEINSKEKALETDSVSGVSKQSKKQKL
Sequence (Q09028 whole entry partner): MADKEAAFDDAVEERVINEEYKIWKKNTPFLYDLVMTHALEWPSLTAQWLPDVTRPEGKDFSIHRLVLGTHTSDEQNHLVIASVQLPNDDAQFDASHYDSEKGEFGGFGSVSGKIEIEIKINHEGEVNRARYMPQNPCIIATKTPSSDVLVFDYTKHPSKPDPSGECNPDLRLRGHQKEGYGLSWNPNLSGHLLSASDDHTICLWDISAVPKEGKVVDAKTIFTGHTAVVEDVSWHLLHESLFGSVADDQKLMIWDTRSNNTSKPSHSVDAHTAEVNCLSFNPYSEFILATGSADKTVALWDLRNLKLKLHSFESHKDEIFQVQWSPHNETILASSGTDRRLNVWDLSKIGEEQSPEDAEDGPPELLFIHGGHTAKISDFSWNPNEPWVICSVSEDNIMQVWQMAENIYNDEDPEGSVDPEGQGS
Sequence (Q6ZN18 whole entry partner): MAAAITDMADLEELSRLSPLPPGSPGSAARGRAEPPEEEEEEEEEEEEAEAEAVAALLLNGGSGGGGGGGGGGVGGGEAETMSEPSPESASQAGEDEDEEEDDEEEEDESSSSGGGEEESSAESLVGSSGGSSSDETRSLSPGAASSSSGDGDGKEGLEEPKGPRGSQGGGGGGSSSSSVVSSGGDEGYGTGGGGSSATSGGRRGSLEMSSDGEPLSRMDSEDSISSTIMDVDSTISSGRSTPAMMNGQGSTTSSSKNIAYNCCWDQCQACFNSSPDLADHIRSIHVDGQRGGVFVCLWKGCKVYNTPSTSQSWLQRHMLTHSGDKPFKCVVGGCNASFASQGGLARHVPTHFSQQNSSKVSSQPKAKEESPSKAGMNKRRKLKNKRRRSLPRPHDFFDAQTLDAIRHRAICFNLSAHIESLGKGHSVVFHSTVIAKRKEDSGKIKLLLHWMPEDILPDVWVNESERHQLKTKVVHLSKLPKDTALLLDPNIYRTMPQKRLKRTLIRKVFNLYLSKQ
Where a name gives a salt, the structure may show the parent alone.
Assay metric: pIC50
Give bare numbers, as −log10 of the molar value.

| Compound | Data value |
| --- | --- |
| CC[C@H](c1scc(C(=O)NCc2c(C)cc(C)[nH]c2=O)c1C)N1CCC(N(C)C)CC1 | 6.50 |
| CCN(c1c(Cl)sc(C(=O)NCc2c(C)cc(C)[nH]c2=O)c1C)C1CCOCC1 | 6.70 |
| CCN(c1c(C)c(C(=O)NCc2c(C)cc(C)[nH]c2=O)nn1C)C1CCOCC1 | 5.70 |
| Cc1cc(C)c(CNC(=O)c2csc(N3CCCC3C3CCNCC3)c2C)c(=O)[nH]1 (centres unmarked) [Example 68, hydrochloride] | 7.10 |
| CCN(c1sc(-c2ccco2)c(C(=O)NCc2c(C)cc(C)[nH]c2=O)c1C)C1CCOCC1 | 7.49 |
| CCN(c1scc(C(=O)NCc2c(C)cc(C)[nH]c2=O)c1C)[C@H]1CC[C@@H](N(C)C)CC1 | 7.70 |
| CCN(c1sc(-c2cnn(C)c2)c(C(=O)NCc2c(C)cc(C)[nH]c2=O)c1C)C1CCOCC1 | 7.00 |

Now, please, on to the next compound.
// field: pIC50; key: CCN(c1sc(C)c(C(=O)NCc2c(C)cc(C)[nH]c2=O)c1C)C1CCOCC1 [Example 54, hydrochloride] ; value = 7.49

* * *

biological target: EZH2 within the PRC2 complex (Homo sapiens (Human), UniProt Q15910); assay: EZH2 methyltransferase SPA, biotinylated histone H3K27 peptide substrate (Assay Protocol 2); type: biochemical; settings: 3H-SAM, ≦10 nM approaches limit of detection
Counter-ions that a name gives are not always drawn.
For each record, write down the corresponding log10 IC50.
Transform log10 | Measure IC50 | Unit µM

Please review the following examples before continuing.
| Compound | log10 IC50 |
| --- | --- |
| CCN(c1sc(C2CCN(S(C)(=O)=O)CC2)c(C(=O)NCc2c(C)cc(C)[nH]c2=O)c1C)C1CCOCC1 | -0.30 |
| CCN(c1scc(C(=O)NCc2c(C)cc(C(F)(F)F)[nH]c2=O)c1C)[C@H]1CC[C@H](N(C)C)CC1 | -0.20 |
| C=C(c1scc(C(=O)NCc2c(C)cc(C)[nH]c2=O)c1C)C1CCNCC1 | -0.90 |
| CCN(c1scc(C(=O)NCc2c(C)cc(C)[nH]c2=O)c1C)C1CCNCC1 [Example 12, hydrochloride] | -1.70 |
| CCN(C)[C@H]1CC[C@H](N(CC)c2scc(C(=O)NCc3c(C)cc(C)[nH]c3=O)c2C)CC1 | -1.80 |

Give log10 IC50 for each listed item.
1. CCN(c1scc(C(=O)NCc2c(C)cc(C)n(C)c2=O)c1C)[C@H]1CC[C@H](N(C)C)CC1
2. CCN(c1sc(C2CCN(C(=O)OC(C)(C)C)CC2)c(C(=O)NCc2c(C)cc(C)[nH]c2=O)c1C)C1CCOCC1

1: -1.30; 2: -0.50

* * *

For each record, write down the corresponding pIC50.
molecular target: EZH2 within the PRC2 complex (Homo sapiens (Human)); assay: EZH2 methyltransferase SPA, biotinylated histone H3K27 peptide substrate (Assay Protocol 2); type: biochemical; conditions: 3H-SAM, ≦10 nM approaches limit of detection
Structures can show the parent of a compound that is named as a salt.
Numbers only, as −log10 of the molar value.

| Molecule | Data value |
| --- | --- |
| CCN(c1sc(Br)c(C(=O)NCc2c(C)cc(C)[nH]c2=O)c1C)[C@H]1CC[C@H](N(C)C)CC1 [Example 50, hydrochloride] | 7.70 |

// field: pIC50; key: CCC(c1scc(C(=O)NCc2c(C)cc(C)[nH]c2=O)c1C)[C@H]1CC[C@H](N)CC1 (stereo partly drawn) ; value = 7.80

* * *

Target: EZH2 within the PRC2 complex (Homo sapiens (Human), UniProt Q15910)
Experiment: EZH2 methyltransferase SPA, biotinylated histone H3K27 peptide substrate (Assay Protocol 2)
Assay type: biochemical
Settings: 3H-SAM, ≦10 nM approaches limit of detection
Method: Compounds contained herein were evaluated for their ability to inhibit the methyltransferase activity of EZH2 within the PRC2 complex. […] Enzyme activity was measured in a scintillation proximity assay (SPA) where a tritiated methyl group is transferred from 3H-SAM to a lysine residue on a biotinylated, unmethylated peptide substrate derived from histone H3. The peptides were captured on streptavidin-coated SPA beads and the resulting signal was read on a ViewLux plate reader. […] • 4. […] Read plates • 2. […]
Where a name gives a salt, the structure may show the parent alone.
Assay metric: pIC50
One number for each entry, as −log10 of the molar value.

| Molecule | Data value |
| --- | --- |
| CCN(c1scc(C(=O)NCc2c(C)cc(C)[nH]c2=O)c1C)C1CCNCC1F (stereo not shown) | 7.70 |
| CCN(c1scc(C(=O)NCc2c(C)cc(C)[nH]c2=O)c1C)C1CCOCC1 | 7.80 |
| CCN(c1scc(C(=O)NCc2c(C)cc(C)n(C)c2=O)c1C)C1CCOCC1 | 6.10 |

Now, please, on to the next molecule.
// field: pIC50; key: Cc1cc(C)c(CNC(=O)c2csc(-c3cccc4c3CCNC4)c2C)c(=O)[nH]1 [Example 70, hydrochloride] ; value = 7.00

* * *

target: EZH2 within the PRC2 complex (Homo sapiens (Human), UniProt Q15910); experiment: EZH2 methyltransferase SPA, mononucleosome substrate (Assay Protocol 1); type: biochemical; settings: HeLa mononucleosome substrate, 3H-SAM, ≦10 nM approaches limit of detection
Assay metric: log10(IC50) (log10 of the value in µM)
Transform log10 | Measure IC50 | Unit µM

Please review the following examples before continuing.
| Compound | Measured on | log10(IC50) |
| --- | --- | --- |
| Cc1cc(C)c(CNC(=O)c2csc(C(C)N3CCC(N(C)C)CC3)c2)c(=O)[nH]1 (centres unmarked) | EZH2 within the PRC2 complex (Homo sapiens (Human), UniProt Q15910) | -0.50 |
| CCC(c1scc(C(=O)NCc2c(C)cc(C)[nH]c2=O)c1C)N1CCOCC1 (centres unmarked) | EZH2 within the PRC2 complex (Homo sapiens (Human), UniProt Q15910) | -0.40 |
| CCN(c1c(Cl)sc(C(=O)NCc2c(C)cc(C)[nH]c2=O)c1C)C1CCOCC1 | EZH2 within the PRC2 complex (Homo sapiens (Human), UniProt Q15910) | -1.00 |
| CCN(c1scc(C(=O)NCc2c(C)cc(C)[nH]c2=O)c1C)C1CCN(C(=O)OC(C)(C)C)CC1 | EZH2 within the PRC2 complex (Homo sapiens (Human), UniProt Q15910) | -1.80 |
| Cc1cc(C)c(CNC(=O)c2cnn(CC3CCOCC3)c2C)c(=O)[nH]1 | EZH2 within the PRC2 complex (Homo sapiens (Human), UniProt Q15910) | 1.20 |

Give log10(IC50) for each listed item.
1. Cc1cc(C)c(CNC(=O)c2csc(C3CCCN3C3CCOCC3)c2C)c(=O)[nH]1 (centres unmarked)
2. Cc1cc(C)c(CNC(=O)c2csc(C(O)C3CCNCC3)c2C)c(=O)[nH]1 (centres unmarked)

1: -0.40; 2: -1.00

* * *

target: EZH2 within the PRC2 complex (Homo sapiens (Human)); test: EZH2 methyltransferase SPA, biotinylated histone H3K27 peptide substrate (Assay Protocol 2); type: biochemical; conditions: 3H-SAM, ≦10 nM approaches limit of detection
pIC50: −log10 of the molar value. Counter-ions that a name gives are not always drawn.
Decide by pIC50: equal to or exceeding 6 means true (1), less means false (0).

These recorded examples may help you get a feel for the data.
| Compound | Qualitative label |
| --- | --- |
| CCC(c1scc(C(=O)NCc2c(C)cc(C)[nH]c2=O)c1C)[C@H]1CC[C@@H](N(C)C)CC1 (single isomer, unassigned; (+)) [Example 46] | true (1) |
| Cc1cc(C)c(CNC(=O)c2csc(N3CCCCC3C3CCNCC3)c2C)c(=O)[nH]1 (stereo not shown) [Example 69, hydrochloride] | true (1) |

Given CCC(c1scc(C(=O)NCc2c(C)cc(C)[nH]c2=O)c1C)N1CCC(N(C)C)CC1 (stereo not shown) [Example 28] , state whether its pIC50 is at least 6.
true (1)

Given CCC(c1scc(C(=O)NCc2c(C)cc(C)[nH]c2=O)c1C)N1CCOCC1 (stereo not shown) [Example 29] , state whether its pIC50 is at least 6.
false (0)

Given Cc1cc(C)c(CNC(=O)c2csc(C(C)N3CCC(N(C)C)CC3)c2)c(=O)[nH]1 (stereo not shown) [Example 13] , state whether its pIC50 is at least 6.
false (0)

Given CCN(c1scc(C(=O)NCc2c(C(F)(F)F)cc(C)[nH]c2=O)c1C)C1CCOCC1 [Example 15] , state whether its pIC50 is at least 6.
true (1)

Given CCN(c1sc(-c2ccoc2)c(C(=O)NCc2c(C)cc(C)[nH]c2=O)c1C)[C@H]1CC[C@H](N(C)C)CC1 [Example 77] , state whether its pIC50 is at least 6.
true (1)

These data points were gathered from patent US9505745B2.
